- experimental-protocol: Permeability across apical to basolateral side in MDCK cells
- Assay type: ADME, cell-based, Canis lupus familiaris
- run-parameters: dog, read-out: permeability
recorded-metric: Papp A→B

What does the record list as Papp A→B for C[C@H]1[C@H](F)C[C@@H](C(=O)NCc2cc(-c3cnc(C(F)(F)F)nc3)ncc2F)N1S(=O)(=O)c1ccc(F)cc1 ?
11.2 ×10⁻⁶ cm/s

* * *

- system-name: Transient receptor potential cation channel subfamily A member 1 (Homo sapiens)
- Sequence (O75762 whole entry): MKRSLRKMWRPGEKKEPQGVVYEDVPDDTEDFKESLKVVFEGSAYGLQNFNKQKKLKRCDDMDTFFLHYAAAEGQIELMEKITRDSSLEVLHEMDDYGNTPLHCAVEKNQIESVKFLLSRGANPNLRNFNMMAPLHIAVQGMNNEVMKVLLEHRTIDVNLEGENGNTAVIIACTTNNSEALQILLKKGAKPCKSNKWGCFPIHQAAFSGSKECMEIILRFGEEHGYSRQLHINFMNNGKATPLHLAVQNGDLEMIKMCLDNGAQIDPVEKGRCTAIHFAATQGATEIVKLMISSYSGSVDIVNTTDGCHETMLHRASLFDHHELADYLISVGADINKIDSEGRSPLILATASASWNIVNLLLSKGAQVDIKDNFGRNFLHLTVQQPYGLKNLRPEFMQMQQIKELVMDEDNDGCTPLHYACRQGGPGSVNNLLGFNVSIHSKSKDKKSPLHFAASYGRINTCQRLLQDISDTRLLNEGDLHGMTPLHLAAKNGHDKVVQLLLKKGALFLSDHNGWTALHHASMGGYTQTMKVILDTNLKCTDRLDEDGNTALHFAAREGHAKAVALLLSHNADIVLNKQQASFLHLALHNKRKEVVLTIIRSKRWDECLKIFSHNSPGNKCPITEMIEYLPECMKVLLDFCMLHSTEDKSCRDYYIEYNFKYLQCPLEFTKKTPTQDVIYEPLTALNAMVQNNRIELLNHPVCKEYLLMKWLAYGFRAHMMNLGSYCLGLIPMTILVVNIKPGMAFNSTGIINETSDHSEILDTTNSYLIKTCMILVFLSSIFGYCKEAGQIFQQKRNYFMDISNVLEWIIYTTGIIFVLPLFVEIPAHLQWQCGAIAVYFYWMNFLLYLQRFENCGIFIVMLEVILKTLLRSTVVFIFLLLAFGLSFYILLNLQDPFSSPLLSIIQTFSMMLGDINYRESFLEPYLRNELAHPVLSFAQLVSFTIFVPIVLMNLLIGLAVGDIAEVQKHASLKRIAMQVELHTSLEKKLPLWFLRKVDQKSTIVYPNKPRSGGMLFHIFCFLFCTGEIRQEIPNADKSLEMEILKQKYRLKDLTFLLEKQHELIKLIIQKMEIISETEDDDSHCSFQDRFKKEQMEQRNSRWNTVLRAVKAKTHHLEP
- experimental-protocol: Inhibition of human TRPA1 expressed in HEK293 cells assessed as inhibition of cinnamaldehyde-induced Ca2+ influx preincubated for 20 mins followed by cinnamaldehyde induction by FLIPR assay
recorded-metric: pIC50
Kindly note that pIC50 refers to -log10 of the concentration in mol/L and answer with the value alone.

Look over these answered cases.
C[C@H]1CC[C@@H](C(=O)NCc2cc(-c3ccc(C(F)(F)F)nc3)ncn2)N1S(=O)(=O)c1ccc(F)cc1: 7.89
O=C(NCc1cc(-c2ccc(C(F)(F)F)nc2)ncn1)[C@@H]1C[C@H](F)CN1S(=O)(=O)c1ccc(F)cc1: 5.36
C[C@H]1[C@H](F)C[C@@H](C(=O)NCc2cc(-c3cnc(C(F)(F)F)nc3)nc(C3CC3)n2)N1S(=O)(=O)c1ccc(F)cc1: 8.30

# ---- query compound ----
What does the record list as pIC50 for C[C@H]1[C@H](F)C[C@@H](C(=O)NCc2cc(-c3cnc(C(F)(F)F)nc3)c(C#N)cn2)N1S(=O)(=O)c1ccc(F)cc1 ?
7.02

* * *

- experimental-protocol: Kinetic solubility of the compound
- Format: physicochemical
- run-parameters: read-out: Kinetic_solubility
recorded-metric: solubility kinetic (µM)
Expressed in µM, but write only the number.

Look over these answered cases.
C[C@H]1[C@H](F)C[C@@H](C(=O)NCc2cc(-c3cnc(C(F)(F)F)cn3)ncn2)N1S(=O)(=O)c1ccc(F)cc1: 18
C[C@H]1[C@H](F)C[C@@H](C(=O)NCc2cc(-c3cnc(C(F)(F)F)nc3)ncn2)N1S(=O)(=O)c1ccc(F)cc1: 53
C[C@H]1[C@H](F)C[C@@H](C(=O)NCc2cc(-c3cnc(C(F)(F)F)nc3)ncc2C#N)N1S(=O)(=O)c1ccc(F)cc1: 14

# ---- query molecule ----
What does the record list as solubility kinetic for C[C@H]1[C@H](F)C[C@@H](C(=O)NCc2c(F)cnc(-c3cnc(C(F)(F)F)nc3)c2F)N1S(=O)(=O)c1ccc(F)cc1 ?
8

* * *

- experimental-protocol: Cmax in rat at 30 mg/kg, po
- Assay type: ADME, organism-based
- Set-up: dose 30 mg/kg, route oral
- run-parameters: in vivo
recorded-metric: Cmax (nM)
Expressed in nM, but write only the number.

What does the record list as Cmax for C[C@H]1[C@H](F)C[C@@H](C(=O)NCc2cc(-c3cnc(C(F)(F)F)nc3)ncc2F)N1S(=O)(=O)c1ccc(F)cc1 ?
2330

* * *

- system-name: Transient receptor potential cation channel subfamily A member 1 (Rattus norvegicus, UniProt Q6RI86)
- Sequence (Q6RI86 whole entry): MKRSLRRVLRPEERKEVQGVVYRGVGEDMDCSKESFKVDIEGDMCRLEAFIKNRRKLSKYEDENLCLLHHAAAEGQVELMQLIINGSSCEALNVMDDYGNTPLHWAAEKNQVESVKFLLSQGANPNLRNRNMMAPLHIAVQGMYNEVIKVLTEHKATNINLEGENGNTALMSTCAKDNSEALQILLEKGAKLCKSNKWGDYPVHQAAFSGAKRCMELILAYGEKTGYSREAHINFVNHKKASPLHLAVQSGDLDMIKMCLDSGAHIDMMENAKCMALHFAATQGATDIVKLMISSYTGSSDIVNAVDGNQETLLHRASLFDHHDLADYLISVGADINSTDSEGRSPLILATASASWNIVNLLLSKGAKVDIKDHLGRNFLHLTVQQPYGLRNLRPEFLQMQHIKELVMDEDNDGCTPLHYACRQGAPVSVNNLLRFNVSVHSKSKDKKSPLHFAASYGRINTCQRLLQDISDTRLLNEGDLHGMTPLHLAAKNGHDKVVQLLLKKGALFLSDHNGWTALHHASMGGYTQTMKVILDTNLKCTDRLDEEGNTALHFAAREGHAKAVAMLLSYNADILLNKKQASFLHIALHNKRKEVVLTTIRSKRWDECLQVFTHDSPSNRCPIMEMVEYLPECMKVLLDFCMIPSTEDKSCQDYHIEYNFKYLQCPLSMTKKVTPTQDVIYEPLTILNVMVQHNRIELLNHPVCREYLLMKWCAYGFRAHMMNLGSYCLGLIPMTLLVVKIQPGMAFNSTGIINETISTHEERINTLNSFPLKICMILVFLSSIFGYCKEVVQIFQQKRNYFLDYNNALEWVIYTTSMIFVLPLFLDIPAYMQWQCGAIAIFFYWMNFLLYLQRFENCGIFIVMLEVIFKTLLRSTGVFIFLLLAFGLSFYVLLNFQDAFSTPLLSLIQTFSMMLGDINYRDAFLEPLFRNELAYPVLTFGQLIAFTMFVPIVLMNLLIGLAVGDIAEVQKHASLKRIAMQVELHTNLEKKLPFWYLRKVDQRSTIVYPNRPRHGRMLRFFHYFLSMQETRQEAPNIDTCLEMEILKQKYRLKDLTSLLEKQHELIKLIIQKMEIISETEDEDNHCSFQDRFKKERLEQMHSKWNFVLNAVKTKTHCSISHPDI
- experimental-protocol: Inhibition of rat TRPA1 expressed in HEK293 cells assessed as inhibition of cinnamaldehyde-induced Ca2+ influx preincubated for 20 mins followed by cinnamaldehyde induction by FLIPR assay
- Type: cell-based
recorded-metric: IC50 (nM)
Expressed in nM, but write only the number.

What does the record list as IC50 for C[C@H]1[C@H](F)C[C@@H](C(=O)NCc2cc(-c3cnc(C(F)(F)F)nc3)ncc2F)N1S(=O)(=O)c1ccc(F)cc1 ?
36
